# experiment.notes: NCI Yeast Anticancer Drug Screen. Data for the sgs1 mgt1 strain (AID 161);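 also: 0% = growth of cultures given vehicle only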
# test.parameters: S. cerevisiae sgs1 mgt1 strain, at 50.0 µM (retest, dose inferred, filed as 5.0), stronger effect = higher value
About 79,000 compounds went through this panel and 15% of them were active in at least one assay; those are over-represented in the sample as a whole.
Entries are grouped by growth inhibition into these classes: group 1: < 60%; group 2: ≥ 60% and < 90%; group 3: ≥ 90%

Example entries begin here.
compound | cat
O=C1OC(OC/C(Br)=C(/Br)COC2OC(=O)C(Cl)=C2Cl)C(Cl)=C1Cl (configuration not stated) | group 3
O=C(O)/C=C/C(=O)Nc1cc2c(cc1Br)-c1ccccc1C2Br (configuration not stated) | group 2
COc1cccc(/C=C/C(C)=O)c1OC | group 1
COc1ccnc(-c2cc(OC)cc(/C(N)=N/O)n2)c1 | group 2
CN(C)CCSCCN1c2ccccc2Sc2ccc(Cl)cc21 | group 3
c1ccc(SSc2ccccc2)cc1 | group 1

Problem: Field: class (growth inhibition) — entry: CC(C)(C)C(=O)CC(=O)C(F)(F)C(F)(F)C(F)(F)F.CC(C)(C)C(=O)CC(=O)C(F)(F)C(F)(F)C(F)(F)F.CC(C)(C)C(=O)CC(=O)C(F)(F)C(F)(F)C(F)(F)F.[Gd]
Solution: group 2

Problem: Where would CC(C)CC(CC(C)C)NCC(C)OC(=O)C(c1ccccc1)c1ccccc1 (configuration not stated) land among the classes by reported growth inhibition?
Solution: group 3
